- testedOn: Muscarinic acetylcholine receptor M2 (Homo sapiens) (UniProt P08172)
- Sequence (P08172 whole entry): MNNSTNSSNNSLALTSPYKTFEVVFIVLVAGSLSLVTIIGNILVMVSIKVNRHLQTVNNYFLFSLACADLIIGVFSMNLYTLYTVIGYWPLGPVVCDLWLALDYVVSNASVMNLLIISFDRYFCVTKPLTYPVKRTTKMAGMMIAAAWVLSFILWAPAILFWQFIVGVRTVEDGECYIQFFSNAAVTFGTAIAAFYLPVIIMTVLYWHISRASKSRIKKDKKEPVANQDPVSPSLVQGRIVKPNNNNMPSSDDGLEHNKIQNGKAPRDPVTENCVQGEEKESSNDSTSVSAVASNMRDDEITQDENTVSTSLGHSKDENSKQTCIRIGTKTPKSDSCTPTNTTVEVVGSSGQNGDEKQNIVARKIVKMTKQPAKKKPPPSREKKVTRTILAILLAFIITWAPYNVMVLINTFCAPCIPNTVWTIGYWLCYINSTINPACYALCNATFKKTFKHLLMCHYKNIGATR
- assayName: Ability to displace [3H]N-methylscopolamine binding to M2 human recombinant muscarinic receptor in CHO cells at concentration 1 uM
- Assay type: cell-based
readoutKind: inhibition (%)

>>> measuredresult("COc1ccc(COc2ccc(-c3cc(/C=C4/CN5CCC4CC5)on3)cc2)cc1")
26
>>> measuredresult("C(=C1\\CN2CCC1CC2)/c1cc(-c2ccccc2)no1")
0
>>> measuredresult("COc1ccc(COc2ccc(-c3cc(/C=C4\\CN5CCC4CC5)on3)cc2)cc1")
55
>>> measuredresult("COc1ccc(-c2cc(/C=C3\\CN4CCC3CC4)on2)cc1")
10
>>> measuredresult("COc1ccc(-c2cc(/C=C3\\CN4CCC3CC4)on2)cc1OC")
14
>>> measuredresult("COc1ccc(-c2cc(/C=C3/CN4CCC3CC4)on2)cc1")
16
>>> measuredresult("Cc1ccc(-c2cc(/C=C3/CN4CCC3CC4)on2)cc1")
2
>>> measuredresult("N#Cc1ccc(-c2cc(/C=C3\\CN4CCC3CC4)on2)cc1")
6
>>> measuredresult("CC(C)(C)OC(=O)Nc1ccc(-c2cc(/C=C3/CN4CCC3C4)on2)cc1 (centres undefined)")
3
